Some molecules, each annotated with its measured LD50.
assay.details: Walker 256 tumor growth inhibition and lethality, oral (Table 5)
Assay type: in vivo
particulars: in vivo
reported.metric: LD50 (mg/kg)

{"columns": ["molecule", "endpoint.result"],
 "data": [
  ["O=C(O)CCCc1ccc(N(CCCl)CCCl)cc1 [Chlorambucil, reference compound]", 13.5],
  ["C[C@]12C=CC(=O)C=C1CC[C@@H]1[C@@H]2[C@@H](O)C[C@@]2(C)[C@H]1CC[C@]2(O)C(=O)COC(=O)CCCc1ccc(N(CCCl)CCCl)cc1", 64]
]}
